- assayNotes: chemical genetic growth profiling, strain panel (AID 1159580);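 note: tested at 20 µM; growth read once vehicle control cultures reached saturation at 30 °C; lower values mean less growth of the strain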
- runConditions: S. cerevisiae deletion strains, growth OD, locus YPL241C, strain CIN2, stronger effect = lower value
Screen size: about 5,500 compounds; about 2,000 (36%) were called active. Inconclusive results (about 18%) are left out. Some of the results follow.
Response field label: string, one of condition met (normalized growth strictly below 1) or condition not met.

The examples below pair each entry with its known result.
| smilesRepr | category |
| --- | --- |
| CC(C)(C)S(=O)(=O)/C(C#N)=C/c1ccc(F)cc1F | condition not met |
| COC(=O)c1cc(=O)c(O)c2c(O)c(O)ccc2c1 | condition met |

Could you now look at the following molecule, please?
Is the reported normalized growth for Cc1ccc(-c2csc(CC#N)n2)cc1C strictly below 1?
condition met

----------
- assayNotes: chemical genetic growth profiling, strain panel (AID 1159580);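 note: tested at 20 µM; growth read once vehicle control cultures reached saturation at 30 °C; lower values mean less growth of the strain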
- runConditions: S. cerevisiae deletion strains, growth OD, locus YNR049C, strain mso1
The campaign covered roughly 5,500 compounds. About 2,000 (36%) were called active. Roughly 18% stayed inconclusive and do not appear here. Cut-off read from the data, not from the text of the source: active = normalized growth mostly below about 0.91 (no sharp cut-off); inconclusive = no clear call, values can overlap the other calls; inactive = mostly above about 0.92. This is one part of the list.
Tick one outcome: active, inactive

| molecule | category |
| --- | --- |
| O=C1C(Cl)=C(Cl)C(=O)C(Cl)=C1Cl | inactive |
| COc1ccc(-c2coc3cc(O)ccc3c2=O)cc1 | inactive |

How did this test come out for O=C(O)CCCc1ccccc1 ?
inactive

How did this test come out for O=C(O)/C=C/c1ccc(O)c(O)c1 ?
inactive

How did this test come out for COc1cc2nc(N(C)CCCNC(=O)C3CCCO3)nc(N)c2cc1OC (configuration not stated) ?
inactive

How did this test come out for CN(C)CCCC1(c2ccc(F)cc2)OCc2cc(C#N)ccc21 (configuration not stated) ?
inactive

How did this test come out for COc1cc(CNC(=O)CCCC/C=C/C(C)C)ccc1O ?
inactive

How did this test come out for CN(C)CCOC(c1ccc(Cl)cc1)c1ccccn1 (configuration not stated) ?
inactive

How did this test come out for C[n+]1c2cc(N)ccc2cc2ccc(N)cc21 ?
active

How did this test come out for CCCc1cc(C(N)=S)ccn1 ?
inactive

How did this test come out for OCCc1ccccc1 ?
inactive

How did this test come out for Clc1ccc(C(OCCN2CCCCC2)c2ccccc2)cc1 (configuration not stated) ?
inactive

How did this test come out for CC1(O)CC2C(CC1O)C2(C)C (configuration not stated) ?
inactive

How did this test come out for CCn1cc(C(=O)O)c(=O)c2cc(F)c(N3CCNC(C)C3)c(F)c21 (configuration not stated) ?
inactive

How did this test come out for CN1CCC(OC(c2ccccc2)c2ccccc2)CC1 ?
inactive

How did this test come out for O=C(O)CCCc1ccc(N(CCCl)CCCl)cc1 ?
inactive

How did this test come out for C/C=C(\C)C(=O)O[C@H]1C[C@@H](OC(C)=O)[C@@]2(C(=O)OC)CO[C@@H]3C2[C@]12CO[C@](O)(C(=O)OC)[C@H]2[C@](C)(C12O[C@@]1(C)[C@H]1C[C@@H]2OC2OC=C[C@@]21O)[C@@H]3O (some centres not stated) ?
inactive

How did this test come out for Cc1ccc(C(=O)Nc2ccc(S(=O)(=O)O)c3cc(S(=O)(=O)O)cc(S(=O)(=O)O)c23)cc1NC(=O)c1cccc(NC(=O)Nc2cccc(C(=O)Nc3cc(C(=O)Nc4ccc(S(=O)(=O)O)c5cc(S(=O)(=O)O)cc(S(=O)(=O)O)c45)ccc3C)c2)c1 ?
inactive

How did this test come out for CC[C@]1(O)CC2CN(CCc3c([nH]c4ccccc34)[C@@](C(=O)OC)(c3cc4c(cc3OC)N(C)[C@H]3[C@@](O)(C(=O)OC)[C@H](OC(C)=O)[C@]5(CC)C=CCN6CC[C@]43[C@@H]65)C2)C1 (some centres not stated) ?
inactive

How did this test come out for CN(C)CCN(Cc1cccs1)c1ccccn1 ?
inactive
